From: patent US11566007B2

Target desc: KRAS G13D (Homo sapiens (Human), UniProt P01116+P62937, G13D)
Sequence (P01116-2 other isoform, or with tags, fused parts or gaps G13D): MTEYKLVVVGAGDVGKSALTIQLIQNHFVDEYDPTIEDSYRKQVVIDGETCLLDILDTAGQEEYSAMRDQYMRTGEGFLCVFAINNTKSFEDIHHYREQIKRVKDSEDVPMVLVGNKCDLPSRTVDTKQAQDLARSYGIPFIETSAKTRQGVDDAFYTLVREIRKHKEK
Sequence (P62937 whole entry): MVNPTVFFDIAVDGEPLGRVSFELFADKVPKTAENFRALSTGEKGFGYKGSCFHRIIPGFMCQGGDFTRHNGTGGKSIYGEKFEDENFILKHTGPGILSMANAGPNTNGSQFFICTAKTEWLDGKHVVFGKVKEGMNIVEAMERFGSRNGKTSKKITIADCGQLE
Method notes: Ras-Raf (BRAF RBD) disruption / FRET / MOA assay, KRAS G13D
Type: biochemical
Test parameters: read-out: IC50* KRAS G13D FRET data
This section presents compounds with their documented IC50 values.

>>> meas_value("C=CC(=O)N(C)[C@H]1C[C@H](N(C)C(=O)N(C)[C@H](C(=O)N[C@H]2Cc3nc(cs3)-c3ccc4c(c3)c(c(-c3cccnc3[C@H](C)OC)n4CC)CC(C)(C)COC(=O)[C@@H]3CCCN(N3)C2=O)C(C)C)C1 (atropisomer, axis not shown)")
"100 to 1000 nM"

## Task // query IC50 value for entry C=CC(=O)N1CC(OCC(C(=O)N[C@H]2Cc3cccc(c3)-c3ccc4c(c3)c(c(-c3cccnc3[C@H](C)OC)n4CC)CC(C)(C)COC(=O)[C@@H]3CCCN(N3)C2=O)C(C)C)C1 (mixture of isomers) [Example A484]
## Result > 10000 nM
